// data source = ChEMBL document CHEMBL1148674

- measuredOn: Voltage-dependent T-type calcium channel subunit alpha-1G (Homo sapiens, UniProt O43497)
- Sequence (O43497 whole entry): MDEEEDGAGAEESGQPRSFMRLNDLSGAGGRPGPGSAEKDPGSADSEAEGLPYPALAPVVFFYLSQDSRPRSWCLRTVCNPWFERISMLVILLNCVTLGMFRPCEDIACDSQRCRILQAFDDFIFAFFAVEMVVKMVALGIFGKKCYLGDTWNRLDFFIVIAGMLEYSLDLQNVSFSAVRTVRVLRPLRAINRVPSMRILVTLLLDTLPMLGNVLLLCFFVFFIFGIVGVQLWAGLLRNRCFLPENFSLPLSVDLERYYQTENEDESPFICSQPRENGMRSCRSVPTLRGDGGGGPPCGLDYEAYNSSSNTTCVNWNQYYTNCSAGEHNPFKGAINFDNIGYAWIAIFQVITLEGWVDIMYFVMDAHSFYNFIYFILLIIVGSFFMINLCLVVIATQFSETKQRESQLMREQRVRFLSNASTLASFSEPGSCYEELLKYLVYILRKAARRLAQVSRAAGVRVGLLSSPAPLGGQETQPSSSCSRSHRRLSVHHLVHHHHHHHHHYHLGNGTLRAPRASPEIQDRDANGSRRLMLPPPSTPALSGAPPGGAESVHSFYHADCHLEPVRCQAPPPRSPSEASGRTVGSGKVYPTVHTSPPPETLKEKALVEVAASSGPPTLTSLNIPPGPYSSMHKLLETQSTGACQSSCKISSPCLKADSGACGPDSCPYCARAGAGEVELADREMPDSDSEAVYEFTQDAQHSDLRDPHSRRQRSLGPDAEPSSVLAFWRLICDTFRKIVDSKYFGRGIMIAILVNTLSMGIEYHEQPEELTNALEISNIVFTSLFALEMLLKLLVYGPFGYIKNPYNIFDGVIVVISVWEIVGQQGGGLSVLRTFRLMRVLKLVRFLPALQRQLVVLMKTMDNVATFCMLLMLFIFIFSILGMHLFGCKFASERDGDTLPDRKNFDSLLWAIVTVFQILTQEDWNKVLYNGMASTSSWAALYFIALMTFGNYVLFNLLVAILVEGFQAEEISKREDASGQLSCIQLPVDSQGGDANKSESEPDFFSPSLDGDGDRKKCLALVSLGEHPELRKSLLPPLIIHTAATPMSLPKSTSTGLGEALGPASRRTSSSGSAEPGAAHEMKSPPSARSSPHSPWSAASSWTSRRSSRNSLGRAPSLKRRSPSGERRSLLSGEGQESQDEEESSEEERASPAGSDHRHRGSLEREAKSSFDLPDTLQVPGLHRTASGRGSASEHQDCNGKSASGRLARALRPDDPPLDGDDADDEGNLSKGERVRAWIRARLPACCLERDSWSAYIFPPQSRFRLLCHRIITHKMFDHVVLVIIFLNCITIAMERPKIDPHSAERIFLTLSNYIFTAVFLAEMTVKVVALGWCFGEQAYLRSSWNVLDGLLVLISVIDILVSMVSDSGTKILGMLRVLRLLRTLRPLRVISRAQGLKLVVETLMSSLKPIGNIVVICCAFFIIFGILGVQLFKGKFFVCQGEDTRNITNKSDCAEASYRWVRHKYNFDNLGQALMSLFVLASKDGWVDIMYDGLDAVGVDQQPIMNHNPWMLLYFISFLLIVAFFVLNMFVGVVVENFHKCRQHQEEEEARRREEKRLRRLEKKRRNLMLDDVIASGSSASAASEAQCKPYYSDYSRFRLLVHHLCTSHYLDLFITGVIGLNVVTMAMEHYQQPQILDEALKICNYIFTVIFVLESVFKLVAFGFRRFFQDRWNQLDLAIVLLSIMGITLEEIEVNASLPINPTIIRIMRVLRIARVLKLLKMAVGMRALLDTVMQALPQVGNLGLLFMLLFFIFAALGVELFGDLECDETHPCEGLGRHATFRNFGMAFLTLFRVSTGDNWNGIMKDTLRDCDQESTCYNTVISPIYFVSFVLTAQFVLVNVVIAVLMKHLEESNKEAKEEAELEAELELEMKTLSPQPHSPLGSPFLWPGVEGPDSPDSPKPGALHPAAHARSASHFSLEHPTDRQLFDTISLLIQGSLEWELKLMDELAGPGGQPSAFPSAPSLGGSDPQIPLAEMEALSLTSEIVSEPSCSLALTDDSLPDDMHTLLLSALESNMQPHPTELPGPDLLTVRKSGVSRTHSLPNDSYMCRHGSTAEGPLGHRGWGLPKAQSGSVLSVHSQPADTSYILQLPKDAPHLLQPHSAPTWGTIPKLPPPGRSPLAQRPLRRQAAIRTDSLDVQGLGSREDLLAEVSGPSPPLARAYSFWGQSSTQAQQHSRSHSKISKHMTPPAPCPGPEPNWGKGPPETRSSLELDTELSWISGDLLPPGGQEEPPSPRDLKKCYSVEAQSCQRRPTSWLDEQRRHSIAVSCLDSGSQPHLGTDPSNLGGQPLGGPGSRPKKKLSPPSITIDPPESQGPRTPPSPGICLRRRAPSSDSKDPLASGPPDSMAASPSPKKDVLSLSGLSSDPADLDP
- experimentSummary: Ability to block calcium channel T type 3.1v expressed in HEK293 cells at 10 uM by whole cell patch clamp method
- Type: functional, cell-based
attributeMeasured: inhibition (%)

{"compound": "COCC(=O)O[C@]1(CCN(C)CCCc2nc3ccccc3[nH]2)CCc2cc(F)ccc2[C@@H]1C(C)C", "inhibition / %": 89.8}
{"compound": "CC(C)[C@@H]1N[C@H](C(=O)NCc2ccccc2)COC1=O (relative stereo)", "inhibition / %": 78.8}
{"compound": "O=C(NCc1ccccc1)[C@@H]1COC(=O)[C@H](Cc2ccc(Cl)cc2)N1 (relative stereo)", "inhibition / %": 83.6}
{"compound": "O=C(NCc1ccccc1)[C@@H]1COC(=O)[C@H](Cc2ccc([N+](=O)[O-])cc2)N1 (relative stereo)", "inhibition / %": 86.2}
{"compound": "C[C@H](NC(=O)[C@H]1COC(=O)[C@H](Cc2ccc(F)cc2)N1)c1ccccc1", "inhibition / %": 80.8}
{"compound": "O=C(NCc1ccccc1)[C@@H]1COC(=O)[C@H](Cc2ccccc2)N1 (relative stereo)", "inhibition / %": 78.9}
{"compound": "COc1ccc(C[C@@H]2N[C@H](C(=O)NCc3ccccc3)COC2=O)cc1 (relative stereo)", "inhibition / %": 74}
{"compound": "CCC(C)[C@@H]1N[C@H](C(=O)NCc2ccccc2)COC1=O (stereo not given in full)", "inhibition / %": 63.4}
{"compound": "C[C@H](NC(=O)[C@@H]1COC(=O)[C@H](Cc2ccc(O)cc2)N1)c1ccccc1", "inhibition / %": 77}
{"compound": "C[C@H](NC(=O)[C@@H]1COC(=O)[C@H](Cc2ccc([N+](=O)[O-])cc2)N1)c1ccccc1", "inhibition / %": 80.2}
{"compound": "C[C@H](NC(=O)[C@@H]1COC(=O)[C@H](Cc2ccc(Cl)cc2)N1)c1ccccc1", "inhibition / %": 64}
{"compound": "C[C@H](NC(=O)[C@H]1COC(=O)[C@H](Cc2ccc(Cl)cc2)N1)c1ccccc1", "inhibition / %": 79}
{"compound": "O=C(NC1CCCCC1)[C@@H]1COC(=O)[C@H](Cc2ccccc2)N1 (relative stereo)", "inhibition / %": 73.6}
{"compound": "CSCC[C@@H]1N[C@H](C(=O)NCc2ccccc2)COC1=O (relative stereo)", "inhibition / %": 75.1}
{"compound": "O=C(NCc1ccccc1)[C@@H]1COC(=O)[C@H](Cc2ccc(F)cc2)N1 (relative stereo)", "inhibition / %": 77.6}
